We begin with a simple list: items and their reported Ki.
- target-system: SERT (Homo sapiens, UniProt P31645)
- Sequence (P31645 whole entry): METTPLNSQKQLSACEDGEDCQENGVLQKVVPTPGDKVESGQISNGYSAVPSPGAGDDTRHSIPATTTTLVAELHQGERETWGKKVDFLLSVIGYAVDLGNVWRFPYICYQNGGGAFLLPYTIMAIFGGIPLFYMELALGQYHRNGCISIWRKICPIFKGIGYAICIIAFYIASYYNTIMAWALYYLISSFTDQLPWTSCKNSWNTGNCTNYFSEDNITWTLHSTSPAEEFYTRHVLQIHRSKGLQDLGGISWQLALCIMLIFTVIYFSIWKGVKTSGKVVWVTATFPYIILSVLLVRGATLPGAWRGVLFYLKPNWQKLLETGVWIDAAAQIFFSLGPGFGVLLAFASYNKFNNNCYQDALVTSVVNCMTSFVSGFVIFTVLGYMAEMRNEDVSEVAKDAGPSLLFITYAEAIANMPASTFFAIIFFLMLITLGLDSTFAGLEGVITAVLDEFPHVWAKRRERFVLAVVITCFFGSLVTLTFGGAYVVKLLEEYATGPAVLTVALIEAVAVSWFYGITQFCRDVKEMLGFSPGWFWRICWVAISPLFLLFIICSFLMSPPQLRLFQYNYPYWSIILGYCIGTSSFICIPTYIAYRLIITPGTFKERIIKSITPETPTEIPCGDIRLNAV
- assay-comment: hSERT membrane radioligand binding assay (3H-citalopram)
- Parameters: expressed in transfected cells; host or cells: HEK-293
- cond: hSERT membranes (HEK-293), 1.0 nM 3H-citalopram; read-out: SERT pKi (converted)

| molecule | reported-endpoint | readout-value |
| --- | --- | --- |
| Clc1ccc(O[C@@H](C2CCOCC2)[C@H]2CCNC2)c(Cl)c1 | Ki | ≤ 100 nM |

Per the record, Clc1ccccc1O[C@@H](C1CCOCC1)[C@@H]1CCNC1 has Ki of ≤ 10 nM

So for COC[C@H](Oc1c(Cl)cccc1Cl)[C@H]1CCNC1 , the logged Ki turned out to be ≤ 100 nM

* * *

Reported Ki is given for each of the following molecules.
- target-system: SERT (Homo sapiens, UniProt P31645)
- assay-comment: hSERT membrane radioligand binding assay (3H-citalopram)
- Design: expressed in transfected cells; host or cells: HEK-293
- cond: hSERT membranes (HEK-293), 1.0 nM 3H-citalopram; read-out: SERT pKi (converted)

Guide cases for Ki, answers given:
| molecule | readout-value |
| --- | --- |
| COC[C@H](Oc1cccc(C(F)(F)F)c1)[C@H]1CCNC1 [Example 4-3] | ≤ 100 nM |
| Clc1ccccc1O[C@H](C1CCOCC1)[C@H]1CCNC1 [Example 13-4] | ≤ 10 nM |

We next turn to a different molecule, shown below.
Sure, the documented Ki for FC(F)(F)c1cccc(O[C@@H](C2CCOCC2)[C@H]2CCNC2)c1 [Example 13-8] is ≤ 100 nM

* * *

- target-system: SERT (Homo sapiens)
- assay-comment: hSERT membrane radioligand binding assay (3H-citalopram)
- Design: expressed in transfected cells; host or cells: HEK-293
- cond: hSERT membranes (HEK-293), 1.0 nM 3H-citalopram; read-out: SERT pKi (converted)
reported-endpoint: Ki

In the examples that follow, each entry is paired with its recorded Ki.
| compound | reported-endpoint | readout-value |
| --- | --- | --- |
| FC(F)(F)c1ccc(O[C@@H](C2CCOCC2)[C@H]2CCNC2)cc1 | Ki | ≤ 0.01 µM |
| COCCC(Oc1ccc(Cl)cc1C)C1CCNC1 (single isomer, unassigned) [5 (1st peak)] | Ki | ≤ 0.01 µM |
| FC(F)(F)c1c(Cl)cccc1O[C@@H](C1CCOCC1)[C@@H]1CCNC1 | Ki | ≤ 0.01 µM |
| COC[C@H](Oc1cccc(Cl)c1C)[C@@H]1CCNC1 | Ki | ≤ 0.01 µM |
| CC(C)OC[C@H](Oc1cccc(Cl)c1Cl)[C@@H]1CCNC1 | Ki | ≤ 0.01 µM |

The recorded Ki with SERT (Homo sapiens) for COC[C@H](Oc1cccc(Cl)c1C)[C@H]1CCNC1 was ≤ 0.01 µM

Log: SERT (Homo sapiens), compound COCC(Oc1ccccc1Cl)C1CCNC1 (single isomer, unassigned) , Ki = ≤ 0.1 µM

* * *

- target-system: SERT (Homo sapiens)
- assay-comment: hSERT membrane radioligand binding assay (3H-citalopram)
- Design: expressed in transfected cells; host or cells: HEK-293
- cond: hSERT membranes (HEK-293), 1.0 nM 3H-citalopram; read-out: SERT pKi (converted)
Below, each entry is listed with its recorded Ki.

Before answering, review these 5 worked examples.
| compound | Ki |
| --- | --- |
| Clc1cccc(O[C@H](C2CCOCC2)[C@@H]2CCNC2)c1Cl | ≤ 0.01 µM |
| Clc1cccc(Cl)c1O[C@@H](C1CCOCC1)[C@@H]1CCNC1 | ≤ 0.1 µM |
| Fc1cccc(O[C@@H](C2CCOCC2)[C@H]2CCNC2)c1Cl | ≤ 0.01 µM |
| COC[C@H](Oc1cccc(Cl)c1Cl)[C@@H]1CCNC1 | ≤ 0.01 µM |
| Clc1cccc(O[C@@H](C2CCOCC2)[C@@H]2CCNC2)c1Cl | ≤ 0.01 µM |

Recorded Ki (compound COC[C@H](Oc1cccc(F)c1Cl)[C@H]1CCNC1 ): ≤ 0.1 µM

Lab note: FC(F)(F)c1c(Cl)cccc1O[C@H](C1CCOCC1)[C@H]1CCNC1 gave Ki of ≤ 0.01 µM

Item: Fc1cccc(O[C@H](C2CCOCC2)[C@@H]2CCNC2)c1 | Ki: ≤ 0.1 µM

Recorded Ki (compound Fc1cccc(O[C@H](C2CCOCC2)[C@@H]2CCNC2)c1Cl ): ≤ 0.01 µM

# Ki (compound: CC(C)OC[C@H](Oc1ccc(Cl)cc1Cl)[C@@H]1CCNC1 ) is ≤ 0.01 µM

According to the records, this compound Fc1cccc(O[C@H](C2CCOCC2)[C@H]2CCNC2)c1Cl displays Ki of ≤ 0.01 µM
